Origin of values: patent US11319324B2

# measured-on: human P2X2/3 receptors (Homo sapiens, UniProt P56373+Q9UBL9)
# Construct: expressed in transfected cells; host or cells: human astrocytoma 1321N1 (1312N1 [sic])
# Sequence (P56373 whole entry): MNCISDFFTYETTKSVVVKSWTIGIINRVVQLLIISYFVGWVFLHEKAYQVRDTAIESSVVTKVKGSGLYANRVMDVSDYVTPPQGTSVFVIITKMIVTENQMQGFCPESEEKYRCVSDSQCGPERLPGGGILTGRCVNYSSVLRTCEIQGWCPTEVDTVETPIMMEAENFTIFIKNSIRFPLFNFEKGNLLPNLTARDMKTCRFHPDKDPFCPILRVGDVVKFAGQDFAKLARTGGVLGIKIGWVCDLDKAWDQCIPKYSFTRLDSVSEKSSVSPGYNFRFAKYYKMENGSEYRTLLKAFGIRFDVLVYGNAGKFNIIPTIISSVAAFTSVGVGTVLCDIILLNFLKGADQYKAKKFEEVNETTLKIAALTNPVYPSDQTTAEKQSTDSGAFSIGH
# Sequence (Q9UBL9 whole entry): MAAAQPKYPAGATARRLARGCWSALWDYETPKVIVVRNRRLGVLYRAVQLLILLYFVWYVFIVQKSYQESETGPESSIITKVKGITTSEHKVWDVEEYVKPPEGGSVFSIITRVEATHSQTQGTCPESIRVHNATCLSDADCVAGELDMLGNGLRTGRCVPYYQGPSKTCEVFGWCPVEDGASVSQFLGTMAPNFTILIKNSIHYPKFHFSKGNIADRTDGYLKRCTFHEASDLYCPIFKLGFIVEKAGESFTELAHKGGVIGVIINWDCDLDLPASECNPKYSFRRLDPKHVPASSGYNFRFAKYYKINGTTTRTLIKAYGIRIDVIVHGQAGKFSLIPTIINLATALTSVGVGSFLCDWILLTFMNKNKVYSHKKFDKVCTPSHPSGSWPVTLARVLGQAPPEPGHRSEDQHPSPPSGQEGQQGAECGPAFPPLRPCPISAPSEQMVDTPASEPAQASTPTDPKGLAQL
# protocol: Intracellular calcium measurement, antagonist activity at human P2X2/3 receptors (hP2X23 1321N1), Fluo8
# Format: cell-based
# run-parameters: ratio of column 4) hP2X2/3 to column 3) hP2X3, 1321N1
measured-metric: hP2X23/hP2X3* Selectivity (1321N1)

{"sample-smiles": "CC(C)N1Cc2c(n(CC(=O)Nc3ccc(F)cn3)c3cc(N4CCN(C)CC4)nn3c2=O)C1=O", "measured-on": "human P2X2/3 receptors (Homo sapiens, UniProt P56373+Q9UBL9)", "observed-value": 173}
{"sample-smiles": "O=C(Cn1c2c(c(=O)n3nc(C4CC4)cc13)CN(CCN1CCOCC1)C2=O)Nc1ccc(F)cn1", "measured-on": "human P2X2/3 receptors (Homo sapiens, UniProt P56373+Q9UBL9)", "observed-value": ">267"}
{"sample-smiles": "CCc1cc2n(CC(=O)Nc3ccc(F)cn3)c3c(c(=O)n2n1)CN(C[C@H]1CN(C)CCO1)C3=O", "measured-on": "human P2X2/3 receptors (Homo sapiens, UniProt P56373+Q9UBL9)", "observed-value": 26}
{"sample-smiles": "CC(C)(C)c1cc2n(CC(=O)Nc3ccc(F)cn3)c3c(c(=O)n2n1)CN(C1CCC1)C3=O", "measured-on": "human P2X2/3 receptors (Homo sapiens, UniProt P56373+Q9UBL9)", "observed-value": ">345"}
